System: Oocyte
Assay: Activity at Wistar rat cortex AMPA receptor expressed in Xenopus laevis oocytes assessed as maximum increase of (S)-AMPA-induced current
Assay type: cell-based
assayMetric: Activity

1) CCN1CNS(=O)(=O)c2cc([N+](=O)[O-])ccc21 = > 1000%
2) CCN1CNS(=O)(=O)c2cc(Br)ccc21 = > 1100%
3) CCN1CNS(=O)(=O)c2cc(OC)ccc21 = > 600%
4) O=S1(=O)N[C@H]2CCCN2c2ccccc21 = 1260%
5) CCN1CNS(=O)(=O)c2cc(I)ccc21 = > 400%
6) CCN1CNS(=O)(=O)c2ccccc21 = > 1800%
7) CCN1CN(C)S(=O)(=O)c2cc(Cl)ccc21 = > 1100%
